Organism: Rattus norvegicus
Experiment: DrugMatrix - Regimen: Daily Repeat
Type: toxicity, organism-based, Sprague-Dawley
Set-up: regimen Daily Repeat, gender Male, age 6-8 weeks
Conditions: in vivo, po, 0 mg/kg, 120 h, tissue Blood, route oral GAVAGE, dose level Control, time 5 day, vehicle 100 % SALINE
resultType: ABSOLUTE BASOPHIL (CELLS/uL)
Note: unit CELLS/uL is implicit; provide only the numeric part.

Look up and state reported ABSOLUTE BASOPHIL for NC(=O)C[S+]([O-])C(c1ccccc1)c1ccccc1 (configuration not stated) [MODAFINIL]
0

* * *

Organism: Rattus norvegicus
Experiment: DrugMatrix - Regimen: Daily Repeat
Assay type: toxicity, organism-based, Sprague-Dawley
Design: regimen Daily Repeat, gender Male, age 6-8 weeks
Conditions: in vivo, sc, 0 mg/kg, 120 h, tissue Plasma, route subcutaneous, dose level Control, time 5 day, […]
resultType: URIC ACID (mg/dL)
Reply with just the number (in mg/dL).

Before answering, review these 3 worked examples.
O=C(Nc1ccc(Br)cc1)c1cc(Br)cc(Br)c1O = 1.58
CC(C)(C)CC(C)(C)c1ccc(OCCOCC[N+](C)(C)Cc2ccccc2)cc1.[Cl-] [BENZETHONIUM CHLORIDE] = 1.45
Oc1c(Cl)cc(Cl)c(Cl)c1Cc1c(O)c(Cl)cc(Cl)c1Cl = 1.45

Provide measured URIC ACID value, entry: CCC(=O)O[C@]1(C(=O)CCl)[C@@H](C)C[C@H]2[C@@H]3CCC4=CC(=O)C=C[C@]4(C)[C@@]3(F)[C@@H](O)C[C@@]21C [CLOBETASOL PROPIONATE]
1.58

# return recorded URIC ACID for input CCN(CC)CCOCCC1=CCC2CC1C2(C)C (stereo not given)
1.6

* * *

Species on record: Rattus norvegicus
Assay: DrugMatrix - Regimen: Daily Repeat
Type: toxicity, organism-based, Sprague-Dawley
Design: regimen Daily Repeat, gender Male, age 6-8 weeks
Settings: in vivo, sc, 0 mg/kg, 72 h, tissue Plasma, route subcutaneous, dose level Control, time 3 day, […]
resultType: ALKALINE PHOSPHATASE (u/L)
Please reply with the bare figure in u/L and do not write the unit itself.

Field: example entries. Status: answers known.
Oc1c(Cl)cc(Cl)c(Cl)c1Cc1c(O)c(Cl)cc(Cl)c1Cl [HEXACHLOROPHENE] = 351.5
CCN(CC)CCOCCC1=CCC2CC1C2(C)C (stereo not given) [MYRTECAINE] = 425.83
CCC(=O)O[C@]1(C(=O)CCl)[C@@H](C)C[C@H]2[C@@H]3CCC4=CC(=O)C=C[C@]4(C)[C@@]3(F)[C@@H](O)C[C@@]21C [CLOBETASOL PROPIONATE] = 360.67
O=C(Nc1ccc(Br)cc1)c1cc(Br)cc(Br)c1O [TRIBROMSALAN] = 360.67

Now look at this entry.
Give the reported value of ALKALINE PHOSPHATASE for this record: CC(C)(C)CC(C)(C)c1ccc(OCCOCC[N+](C)(C)Cc2ccccc2)cc1.[Cl-] [BENZETHONIUM CHLORIDE]
351.5

* * *

The reader will find reported CHOLESTEROL values listed item by item below.
Species on record: Rattus norvegicus
Test: DrugMatrix - Regimen: Daily Repeat
Assay type: toxicity, organism-based, Sprague-Dawley
Design: regimen Daily Repeat, gender Male, age 6-8 weeks
Conditions: in vivo, po, 0 mg/kg, 72 h, tissue Plasma, route oral GAVAGE, dose level Control, time 3 day, vehicle 100 % WATER
// return numeric value only (unit: mg/dL, not printed)

CN(C)CCOC(c1ccccc1)c1ccccc1 [DIPHENHYDRAMINE] = 72.5
C[C@]12C=CC(=O)C=C1CC[C@@H]1[C@@H]2[C@@H](O)C[C@@]2(C)[C@H]1CC[C@]2(O)C(=O)CO = 71.83

Give reported CHOLESTEROL value for NNc1nncc2ccccc12 [HYDRALAZINE]
72.5

* * *

Species on record: Rattus norvegicus
Experiment: DrugMatrix - Regimen: Daily Repeat
Type: toxicity, organism-based, Sprague-Dawley
Parameters: regimen Daily Repeat, gender Male, age 6-8 weeks
Details: in vivo, po, 0 mg/kg, 72 h, tissue Plasma, route oral GAVAGE, dose level Control, time 3 day, vehicle 100 % WATER
Reported ALBUMIN values follow for various compounds
Lab book: enter the figure in G/DL, no units written.

Solved cases (2 shown):
Oc1cccc(O)c1O = 3.75
CN(C)CC[C@@H](c1ccc(Cl)cc1)c1ccccn1 = 4.25

We now examine a further compound.
Given NNc1nncc2ccccc12 [HYDRALAZINE] , respond with its ALBUMIN.
4.02

* * *

Organism: Rattus norvegicus
Experiment: DrugMatrix - Regimen: Daily Repeat
Assay type: toxicity, organism-based, Sprague-Dawley
Design: regimen Daily Repeat, gender Male, age 6-8 weeks
Conditions: in vivo, po, 0 mg/kg, 72 h, tissue Plasma, route oral GAVAGE, dose level Control, time 3 day, vehicle 100 % WATER
resultType: ALANINE AMINOTRANSFERASE (u/L)
Note: unit u/L is implicit; provide only the numeric part.

Recorded results for 2 compounds are shown here.
CS(=O)(=O)c1ccc([C@@H](O)[C@@H](CO)NC(=O)C(Cl)Cl)cc1 [THIAMPHENICOL] = 53.17
CCN(CC)CCNC(=O)c1cc(S(C)(=O)=O)ccc1OC [TIAPRIDE] = 53.17

Consider now this further compound.
For the compound C[C@]12C=CC(=O)C=C1CC[C@@H]1[C@@H]2[C@@H](O)C[C@@]2(C)[C@H]1CC[C@]2(O)C(=O)CO [PREDNISOLONE] , report ALANINE AMINOTRANSFERASE.
48.67

* * *

Organism: Rattus norvegicus
Assay: DrugMatrix - Regimen: Daily Repeat
Type: toxicity, organism-based, Sprague-Dawley
Parameters: regimen Daily Repeat, gender Male, age 6-8 weeks
Conditions: in vivo, po, 0 mg/kg, 120 h, tissue Plasma, route oral GAVAGE, dose level Control, time 5 day, vehicle .5 % CMC
resultType: GLUCOSE (mg/dL)
Answer in mg/dL, number only, no unit symbol.

Below, 3 compounds whose answers are already recorded.
Clc1ccccc1CN1CCc2sccc2C1 [TICLOPIDINE] = 177.33
COc1ccc(C2C(=O)c3ccccc3C2=O)cc1 [ANISINDIONE] = 177.33
NCCCC(O)(P(=O)(O)O)P(=O)(O)O [ALENDRONIC ACID] = 177.33

Please report the measured GLUCOSE for CC(=O)Oc1ccc(C(c2ccc(OC(C)=O)cc2)c2ccccn2)cc1 [BISACODYL]
165.17

Consider the compound C[C@H]1O[C@@H](n2cc(F)c(=O)[nH]c2=O)[C@H](O)[C@@H]1O [DOXIFLURIDINE] and give its recorded GLUCOSE.
177.83

Please look at this compound and report its GLUCOSE: CN(C/C=C/C#CC(C)(C)C)Cc1cccc2ccccc12 [TERBINAFINE]
171.33

State its GLUCOSE for this compound: CC(C(=O)O)c1ccc2oc(-c3ccc(Cl)cc3)nc2c1 (centres undefined) [BENOXAPROFEN]
168.17

Specify GLUCOSE for COc1cc2nc(N3CCN(C(=O)c4ccco4)CC3)nc(N)c2cc1OC [PRAZOSIN] and stop.
150.5

Give a short answer stating reported GLUCOSE for CNCCC(Oc1ccc(C(F)(F)F)cc1)c1ccccc1 (centres undefined) [FLUOXETINE] .
163.33

* * *

Species on record: Rattus norvegicus
Assay: DrugMatrix - Regimen: Daily Repeat
Format: toxicity, organism-based, Sprague-Dawley
Parameters: regimen Daily Repeat, gender Male, age 6-8 weeks
Conditions: in vivo, po, 0 mg/kg, 72 h, tissue Plasma, route oral GAVAGE, dose level Control, time 3 day, vehicle .5 % CMC
Threshold-based label: ALKALINE PHOSPHATASE under 400 u/L gives Fulfilled, ALKALINE PHOSPHATASE not under 400 u/L gives Not fulfilled.

Hello, I'm reviewing records and need to know if ALKALINE PHOSPHATASE of `O=C1CN=C(c2ccccc2Cl)c2cc([N+](=O)[O-])ccc2N1` is below 400 u/L. Could you check?
Not fulfilled

Bench note: check whether `CN/C(=N/CCSCc1nc[nH]c1C)NC#N` shows ALKALINE PHOSPHATASE below 400 u/L
Not fulfilled

Bench note: check whether O=C1Nc2ccc(Cl)cc2C(c2ccccc2Cl)=NC1O (stereo not drawn) shows ALKALINE PHOSPHATASE below 400 u/L
Fulfilled

* * *

Organism: Rattus norvegicus
Assay: DrugMatrix - Regimen: Daily Repeat
Assay type: toxicity, organism-based, Sprague-Dawley
Parameters: regimen Daily Repeat, gender Male, age 6-8 weeks
Conditions: in vivo, po, 0 mg/kg, 72 h, tissue Plasma, route oral GAVAGE, dose level Control, time 3 day, vehicle 100 % WATER
Collected ASPARTATE AMINOTRANSFERASE values appear next to each entry.
// units = u/L; emit number, no label

Observe how each entry below is paired with its result.
C[C@]12C=CC(=O)C=C1CC[C@@H]1[C@@H]2[C@@H](O)C[C@@]2(C)[C@H]1CC[C@]2(O)C(=O)CO = 86.5
CC(C)NCC(O)c1ccc(NS(C)(=O)=O)cc1 (configuration not stated) = 82.83
CS(=O)(=O)c1ccc([C@@H](O)[C@@H](CO)NC(=O)C(Cl)Cl)cc1 = 83.17
CN1[C@@H]2CC[C@H]1C[C@@H](OC(=O)C(CO)c1ccccc1)C2 (some centres not stated) = 81
CC(C)(C)CC(C)(C)c1ccc(OCCOCC[N+](C)(C)Cc2ccccc2)cc1.[Cl-] [BENZETHONIUM CHLORIDE] = 103.17

Consider the compound `CN(C)CC[C@@H](c1ccc(Cl)cc1)c1ccccn1` . State its measured ASPARTATE AMINOTRANSFERASE.
106.17

Name the recorded ASPARTATE AMINOTRANSFERASE of the item NNc1nncc2ccccc12 [HYDRALAZINE] in your answer.
103.17

Identify the reported ASPARTATE AMINOTRANSFERASE for the following entry. CN(C)CCOC(c1ccccc1)c1ccccc1 [DIPHENHYDRAMINE]
103.17

Identify measured ASPARTATE AMINOTRANSFERASE corresponding to CCN(CC)CCNC(=O)c1cc(S(C)(=O)=O)ccc1OC [TIAPRIDE]
83.17

Give reported ASPARTATE AMINOTRANSFERASE value for `Oc1cccc(O)c1O`
66

Could you please provide reported ASPARTATE AMINOTRANSFERASE for O.O.O.O.O.O.[Cl-].[Cl-].[Sr+2] [STRONTIUM CHLORIDE HEXAHYDRATE] ? Thanks!
83.17

Indicate the recorded ASPARTATE AMINOTRANSFERASE value for this compound: `Cn1c(=O)c2[nH]cnc2n(C)c1=O.O`
82.17

Measured values drawn from ChEMBL document CHEMBL3885881 for this set.
